Target: Dual specificity tyrosine-phosphorylation-regulated kinase 1A (Homo sapiens, UniProt Q13627)
Experiment: Inhibition of recombinant DYRK1A (unknown origin) using Ser/Thr 18 peptide as substrate incubated for 1 hr in presence of ATP by FRET assay
assay readout: pEC50
Here pEC50 is given on a logarithmic scale as minus log10 of the concentration in mol/L.

According to the records, this compound FC1(F)CCN(Cc2cncc(-c3ccc4[nH]nc(-c5cc6c(-c7cccnc7)ccnc6[nH]5)c4c3)c2)C1 displays pEC50 of 8.00

According to the records, this compound O=C(CC1CCNCC1)Nc1cncc(-c2cnc3[nH]nc(-c4cc5c(-c6ccncc6)ccnc5[nH]4)c3c2)c1 displays pEC50 of 7.68

According to the records, this compound O=C(Cc1ccccc1)Nc1cncc(-c2ccc3[nH]nc(-c4nc5c(-c6cccc(F)c6)cncc5[nH]4)c3c2)c1 displays pEC50 of 7.62

According to the records, this compound c1cc(-c2ccoc2)c2cc(-c3n[nH]c4ccc(-c5cncc(CNCC6CCCC6)c5)nc34)[nH]c2c1 displays pEC50 of 7.23

According to the records, this compound Nc1cncc(-c2cnc3[nH]nc(-c4cc5c(-c6ccncc6)cncc5[nH]4)c3c2)c1 displays pEC50 of 8.52

According to the records, this compound O=C(Nc1cncc(-c2ccc3[nH]nc(-c4nc5ccncc5[nH]4)c3c2)c1)C1CC1 displays pEC50 of 7.38

According to the records, this compound CC(C)C(=O)Nc1cncc(-c2cnc3[nH]nc(-c4cc5c(N6CCN(C)CC6)nccc5[nH]4)c3c2)c1 displays pEC50 of 8.15

According to the records, this compound Cc1n[nH]c2ccc(-c3cncc(OC[C@H](N)Cc4ccccc4)n3)cc12 displays pEC50 of 8.40

According to the records, this compound CC(C)Nc1cncc(-c2ccc3[nH]nc(-c4nc5c(-c6ccoc6)cncc5[nH]4)c3n2)c1 displays pEC50 of 7.62

According to the records, this compound Oc1cncc(-c2ccc3[nH]nc(-c4nc5c(-c6cccc(F)c6)ccnc5[nH]4)c3n2)c1 displays pEC50 of 7.37

According to the records, this compound CC(C)Nc1cncc(-c2ccc3[nH]nc(-c4nc5c(-c6cccnc6)ccnc5[nH]4)c3n2)c1 displays pEC50 of 7.85

According to the records, this compound CN1CCN(c2ccnc3[nH]c(-c4n[nH]c5ccc(-c6cncc(NC(=O)CC(C)(C)C)c6)nc45)cc23)CC1 displays pEC50 of 8.00

According to the records, this compound Fc1ccc(-c2cncc3[nH]c(-c4n[nH]c5cnc(-c6cncc(CN7CCC(F)(F)C7)c6)cc45)cc23)cc1 displays pEC50 of 7.52

According to the records, this compound CCCCC(=O)Nc1cncc(-c2cnc3[nH]nc(-c4cc5c(-c6ccncc6)cncc5[nH]4)c3c2)c1 displays pEC50 of 7.77

According to the records, this compound CN1CCN(c2ccnc3[nH]c(-c4n[nH]c5ccc(-c6cncc(NC(=O)c7ccccc7)c6)nc45)cc23)CC1 displays pEC50 of 7.54

According to the records, this compound CC(C)(C)C(=O)Nc1cncc(-c2cc3c(-c4cc5c(-c6ccncc6)cncc5[nH]4)n[nH]c3cn2)c1 displays pEC50 of 8.10

According to the records, this compound CN(C)Cc1cncc(-c2ccc3[nH]nc(-c4cc5c(-c6cccnc6)cccc5[nH]4)c3n2)c1 displays pEC50 of 7.09

According to the records, this compound Nc1cncc(-c2ccc3[nH]nc(-c4cc5c(-c6ccccc6F)ccnc5[nH]4)c3c2)c1 displays pEC50 of 7.47

According to the records, this compound CC(C)Nc1cncc(-c2cnc3[nH]nc(-c4cc5c(N6CCCCC6)nccc5[nH]4)c3c2)c1 displays pEC50 of 7.15

According to the records, this compound CCCCC(=O)Nc1cncc(-c2cc3c(-c4cc5c(-c6cccnc6)ccnc5[nH]4)n[nH]c3cn2)c1 displays pEC50 of 7.54

According to the records, this compound O=C(Nc1ccc(N2CCC(F)(F)C2)nc1)c1n[nH]cc1C#Cc1cccnc1 displays pEC50 of 7.68

According to the records, this compound Fc1ccc(-c2cncc3[nH]c(-c4n[nH]c5cnc(-c6cncc(CN7CCCC7)c6)cc45)nc23)s1 displays pEC50 of 8.10

According to the records, this compound CN(C)CCNc1cc(F)cc(-c2cccc3[nH]c(-c4n[nH]c5ccc(-c6cncnc6)nc45)cc23)c1 displays pEC50 of 7.12

According to the records, this compound CS(=O)(=O)NCc1cc(F)cc(-c2nccc3[nH]c(-c4n[nH]c5ncc(-c6cncc(NC(=O)C7CCC7)c6)cc45)cc23)c1 displays pEC50 of 7.80

According to the records, this compound O=C(Nc1c[nH]nc1C(=O)Nc1ccc(N2CCC(F)(F)C2)nc1)c1cncc(OC2CCNCC2)c1 displays pEC50 of 8.00

According to the records, this compound Cc1ncc(NC(=O)c2n[nH]c3ccc(-c4cnn(C5CCN(C)CC5)c4)cc23)s1 displays pEC50 of 8.52

According to the records, this compound CCC(=O)Nc1cncc(-c2cnc3[nH]nc(-c4nc5c(-c6ccc(F)cc6)cncc5[nH]4)c3c2)c1 displays pEC50 of 7.96

According to the records, this compound O=C(Nc1cncc(-c2cc3c(-c4cc5c(-c6ccc(F)cc6)nccc5[nH]4)n[nH]c3cn2)c1)C1CC1 displays pEC50 of 7.13

According to the records, this compound CCC(=O)Nc1cncc(-c2ccc3[nH]nc(-c4nc5c(N6CCCCC6)ccnc5[nH]4)c3n2)c1 displays pEC50 of 7.05

According to the records, this compound CN1CCN(c2ccnc3[nH]c(-c4n[nH]c5ccc(-c6cncc(N)c6)cc45)cc23)CC1 displays pEC50 of 8.15

According to the records, this compound O=C(Nc1cncc(-c2cc3c(-c4cc5cnccc5[nH]4)n[nH]c3cn2)c1)C1CC1 displays pEC50 of 8.40

According to the records, this compound CN1CCN(c2ccnc3[nH]c(-c4n[nH]c5cnc(-c6cncc(CNCC7CCCC7)c6)cc45)cc23)CC1 displays pEC50 of 7.29

According to the records, this compound CC(C)(C)C(=O)Nc1cncc(-c2ccc3[nH]nc(-c4nc5c(-c6cccnc6)cncc5[nH]4)c3c2)c1 displays pEC50 of 8.30

Numbers sourced from ChEMBL document CHEMBL4739717.
